biological target: Bile acid receptor (Homo sapiens, UniProt Q96RI1); assay: Antagonist activity at FXR (unknown origin) expressed in HEK293T cells cotransfected with pCMV-Script-hFXR/pGL4.11-hSHP-Luciferase incubated for 24 hrs in presence of GW4064 by Steady-glo luciferase assay
property_measured: pIC50
Formally, pIC50 is defined as -log10 of the concentration c, with c in mol/L.

Illustrative cases are given below, each with its answer.
CCCC(=O)O[C@H]1CC[C@]2(C)[C@H]3CC[C@@H]4[C@H]5[C@H](C(C)C)CC[C@]5(C(=O)NCC(=O)O)CC[C@@]4(C)[C@]3(C)CC[C@H]2C1(C)C = 4.89
CC(C)[C@@H]1CC[C@]2(C(=O)NCC(=O)O)CC[C@]3(C)[C@H](CC[C@@H]4[C@@]5(C)CC[C@@H](O)C(C)(C)[C@@H]5CC[C@]43C)[C@@H]12 = 4.13
CCCCC(=O)O[C@@H]1CC[C@]2(C)[C@H]3CC[C@@H]4[C@H]5[C@H](C(C)C)CC[C@]5(C(=O)NCC(=O)O)CC[C@@]4(C)[C@]3(C)CC[C@H]2C1(C)C = 5.52
CCCC(=O)O[C@@H]1CC[C@]2(C)[C@H]3CC[C@@H]4[C@H]5[C@H](C(C)C)CC[C@]5(C(=O)OCC(=O)O)CC[C@@]4(C)[C@]3(C)CC[C@H]2C1(C)C = 5.72
CCCC(=O)O[C@@H]1CC[C@]2(C)[C@H]3CC[C@@H]4[C@H]5[C@H](C(C)C)CC[C@]5(C(=O)NCC(=O)NS(C)(=O)=O)CC[C@@]4(C)[C@]3(C)CC[C@H]2C1(C)C = 4.92
CC(C)[C@@H]1CC[C@]2(C(=O)O)CC[C@@H]3[C@H](CC[C@H]4[C@@]3(C)CC[C@H]3C(C)(C)[C@H](O)CC[C@]43C)[C@@H]12 = 5.10

Name the recorded pIC50 for `CCCC(=O)O[C@@H]1CC[C@]2(C)[C@H]3CC[C@@H]4[C@H]5[C@H](C(C)=O)CC[C@]5(C(=O)NCC(=O)O)CC[C@@]4(C)[C@]3(C)CC[C@H]2C1(C)C` .
5.00

Name the recorded pIC50 for `CCCS(=O)(=O)O[C@@H]1CC[C@]2(C)[C@H]3CC[C@@H]4[C@H]5[C@H](C(C)C)CC[C@]5(C(=O)NCC(=O)O)CC[C@@]4(C)[C@]3(C)CC[C@H]2C1(C)C` .
4.85

Name the recorded pIC50 for `CC(C)[C@@H]1CC[C@]2(C(=O)NCC(=O)O)CC[C@]3(C)[C@H](CC[C@@H]4[C@@]5(C)CC[C@@H](OC(=O)C6CC6)C(C)(C)[C@@H]5CC[C@]43C)[C@@H]12` .
5.00

Name the recorded pIC50 for `CC(C)C(=O)O[C@@H]1CC[C@]2(C)[C@H]3CC[C@@H]4[C@H]5[C@H](C(C)C)CC[C@]5(C(=O)NCC(=O)O)CC[C@@]4(C)[C@]3(C)CC[C@H]2C1(C)C` .
5.34

----------
Target: Bile acid receptor (Homo sapiens, UniProt Q96RI1)
Sequence (Q96RI1 whole entry): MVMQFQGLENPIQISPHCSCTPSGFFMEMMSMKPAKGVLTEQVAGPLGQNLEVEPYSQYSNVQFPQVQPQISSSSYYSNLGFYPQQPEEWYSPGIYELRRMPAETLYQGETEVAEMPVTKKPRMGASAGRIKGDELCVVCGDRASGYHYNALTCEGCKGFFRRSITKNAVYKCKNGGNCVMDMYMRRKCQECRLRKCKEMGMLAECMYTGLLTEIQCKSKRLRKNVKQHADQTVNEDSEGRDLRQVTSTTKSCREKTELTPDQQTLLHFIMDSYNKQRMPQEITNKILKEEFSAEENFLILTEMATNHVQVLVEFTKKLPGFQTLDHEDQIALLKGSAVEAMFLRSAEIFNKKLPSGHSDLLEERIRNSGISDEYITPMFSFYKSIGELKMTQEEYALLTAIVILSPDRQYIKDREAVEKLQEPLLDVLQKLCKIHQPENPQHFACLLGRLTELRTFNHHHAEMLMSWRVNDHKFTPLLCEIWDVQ
Assay: Antagonist activity at FXR (unknown origin) expressed in HEK293T cells cotransfected with pCMV-Script-hFXR/pGL4.11-hSHP-Luciferase incubated for 24 hrs in presence of GW4064 by Steady-glo luciferase assay
property_measured: IC50 (µM)
Number in µM, nothing else.

Illustrative cases are given below, each with its answer.
COc1ccc(C(=O)O[C@@H]2CC[C@]3(C)[C@H]4CC[C@@H]5[C@H]6[C@H](C(C)C)CC[C@]6(C(=O)NCC(=O)O)CC[C@@]5(C)[C@]4(C)CC[C@H]3C2(C)C)cc1 = 4.1
CCC(=O)O[C@@H]1CC[C@]2(C)[C@H]3CC[C@@H]4[C@H]5[C@H](C(C)C)CC[C@]5(C(=O)NCC(=O)O)CC[C@@]4(C)[C@]3(C)CC[C@H]2C1(C)C = 9.1
CCOC(=O)O[C@@H]1CC[C@]2(C)[C@H]3CC[C@@H]4[C@H]5[C@H](C(C)C)CC[C@]5(C(=O)NCC(=O)O)CC[C@@]4(C)[C@]3(C)CC[C@H]2C1(C)C = 7.3

Consider the additional compound presented here.
Name the recorded IC50 for `CC(C)[C@@H]1CC[C@]2(C(=O)NCC(=O)O)CC[C@]3(C)[C@H](CC[C@@H]4[C@@]5(C)CC[C@@H](OC(=O)c6ccccc6)C(C)(C)[C@@H]5CC[C@]43C)[C@@H]12` .
1.1
